Parameter Tmax: see the listing below.
# Experimental details: Pharmacokinetics of JHG components in control rats after intragastric administration of JHGs (plasma, Orbitrap Fusion MS)
# Format: in vivo, Sprague Dawley (SD) rats
# Reported conditions: male, Sprague Dawley, rat, plasma, po, 11.41 g/kg/day, JHGs medium dose 11.41 g/kg/d, read-out: Tmax
A number alone suffices; assume h.

Worked cases, answers included:
Molecule | Unit name | Tmax
CC1CCC2N(C1)CC1C3CC4C(CC(O)C5CC(O)CCC54C)C3CCC1C2(C)O (stereo not drawn) | h | 3.33
CC1=C2CC3C(CC(=O)C4CC(O)CCC43C)C2CCC12OC1CC(C)CNC1C2C (stereo not drawn) | h | 4
COc1ccc(-c2cc(=O)c3c(OC)c(OC)c(OC)c(OC)c3o2)cc1OC | h | 0.75
CC1CCC2N(C1)CC1C3CC4C(CC(=O)C5CC(O)CCC54C)C3CCC1C2(C)O (stereo not drawn) | h | 4
O=c1cc(-c2ccc(O)c(O)c2)oc2cc(O[C@@H]3O[C@H](CO)[C@@H](O)[C@H](O)[C@H]3O)cc(O)c12 [Cynaroside] | h | 6

Data request, read-out Tmax, for COc1cc(O)c2c(c1)oc(=O)c1c3cc(O)c(O)cc3oc21
3.67

What about COc1ccc(C(C)=O)c(O)c1 ?
0.75

What about O=c1cc(-c2ccc(O)cc2)oc2cc(OC3OC(CO)C(O)C(O)C3O)cc(O)c12 (stereo not drawn) [Apigenin-7-glucoside] ?
1.5

What about C[C@@H]1O[C@@H](O[C@@H]2[C@@H](O)[C@H](OCCc3ccc(O)c(O)c3)O[C@H](COC(=O)/C=C/c3ccc(O)c(O)c3)[C@H]2O)[C@H](O)[C@H](O)[C@H]1O [Isoacteoside] ?
2

---

# Experimental details: Pharmacokinetics of JHG components in control rats after intragastric administration of JHGs (plasma, Orbitrap Fusion MS)
# Type: in vivo, Sprague Dawley (SD) rats
# Reported conditions: JHGs high dose 22.81 g/kg/d
Parameter Clearances: see the listing below.
A number alone suffices; assume mL/min/kg.

Worked cases, answers included:
Compound | Clearances / mL/min/kg
C[C@@H]1O[C@@H](O[C@@H]2[C@@H](O)[C@H](OCCc3ccc(O)c(O)c3)O[C@H](COC(=O)/C=C/c3ccc(O)c(O)c3)[C@H]2O)[C@H](O)[C@H](O)[C@H]1O [Isoacteoside] | 18.7
CC1=C2CC3C(CC(=O)C4CC(O)CCC43C)C2CCC12OC1CC(C)CNC1C2C (stereo not drawn) | 3.3

Read the next record carefully.
Data request, read-out Clearances, for O=c1cc(-c2ccc(O)c(O)c2)oc2cc(O[C@@H]3O[C@H](CO)[C@@H](O)[C@H](O)[C@H]3O)cc(O)c12 [Cynaroside]
2.5

---

# Experimental details: Pharmacokinetics of JHG components in control rats after intragastric administration of JHGs (plasma, Orbitrap Fusion MS)
# Format: in vivo, Sprague Dawley (SD) rats
# Reported conditions: male, Sprague Dawley, rat, plasma, po, 11.41 g/kg/day, JHGs medium dose 11.41 g/kg/d
Observation type: half-life
Write the quantity with the unit trailing the number.

Worked cases, answers included:
Molecule | half-life
COc1ccc(C(C)=O)c(O)c1 | 11.1 h
CC1CCC2N(C1)CC1C3CC4C(CC(=O)C5CC(O)CCC54C)C3CCC1C2(C)O (stereo not drawn) | 7.97 h

Read the next record carefully.
Data request, read-out half-life, for O=c1cc(-c2ccc(O)cc2)oc2cc(OC3OC(CO)C(O)C(O)C3O)cc(O)c12 (stereo not drawn) [Apigenin-7-glucoside]
11 h

---

Parameter AUC(0-t): see the listing below.
# Experimental details: Pharmacokinetics of JHG components in pulmonary fibrosis (PF) model rats after intragastric administration of JHGs (plasma, Orbitrap Fusion MS)
# Assay type: in vivo, Sprague Dawley (SD) rats
# Reported conditions: male, Sprague-Dawley, rat, plasma, po, 5.7 g/kg/day; PF model rats, JHGs low dose 5.70 g/kg/d

Worked cases, answers included:
Compound | AUC(0-t)
CC1=C2CC3C(CC(=O)C4CC(O)CCC43C)C2CCC12OC1CC(C)CNC1C2C (stereo not drawn) [Peimisine] | 12.3 ng·h/mL
COc1ccc(-c2cc(=O)c3c(OC)c(OC)c(OC)c(OC)c3o2)cc1OC [Nobiletin] | 21.6 ng·h/mL

Read the next record carefully.
Data request, read-out AUC(0-t), for COc1ccc(C(C)=O)c(O)c1 [Paeonol]
21.8 ng·h/mL

---

# Experimental details: Pharmacokinetics of JHG components in control rats after intragastric administration of JHGs (plasma, Orbitrap Fusion MS)
# Assay type: in vivo, Sprague Dawley (SD) rats
# Reported conditions: male, Sprague Dawley, rat, plasma, po, 5.7 g/kg/day, JHGs low dose 5.70 g/kg/d
Observation type: half-life (h)
A number alone suffices; assume h.

Worked cases, answers included:
Compound | half-life, h
CC1CCC2N(C1)CC1C3CC4C(CC(=O)C5CC(O)CCC54C)C3CCC1C2(C)O (stereo not drawn) | 6.06
O=c1cc(-c2ccc(O)c(O)c2)oc2cc(O[C@@H]3O[C@H](CO)[C@@H](O)[C@H](O)[C@H]3O)cc(O)c12 [Cynaroside] | 5.75
COc1ccc(C(C)=O)c(O)c1 | 13.2
COc1ccc(-c2cc(=O)c3c(OC)c(OC)c(OC)c(OC)c3o2)cc1OC | 13.5
CC1CCC2N(C1)CC1C3CC4C(CC(O)C5CC(O)CCC54C)C3CCC1C2(C)O (stereo not drawn) | 52.1
COc1cc(O)c2c(c1)oc(=O)c1c3cc(O)c(O)cc3oc21 | 10.7
O=c1cc(-c2ccc(O)cc2)oc2cc(OC3OC(CO)C(O)C(O)C3O)cc(O)c12 (stereo not drawn) [Apigenin-7-glucoside] | 15.4
CC1=C2CC3C(CC(=O)C4CC(O)CCC43C)C2CCC12OC1CC(C)CNC1C2C (stereo not drawn) | 16.5

Read the next record carefully.
Data request, read-out half-life, for C[C@@H]1O[C@@H](O[C@@H]2[C@@H](O)[C@H](OCCc3ccc(O)c(O)c3)O[C@H](COC(=O)/C=C/c3ccc(O)c(O)c3)[C@H]2O)[C@H](O)[C@H](O)[C@H]1O [Isoacteoside]
6.86

---

Parameter log10 AUC(0-t): see the listing below.
# Experimental details: Pharmacokinetics of JHG components in control rats after intragastric administration of JHGs (plasma, Orbitrap Fusion MS)
# Type: in vivo, Sprague Dawley (SD) rats
# Reported conditions: male, Sprague Dawley, rat, plasma, po, 11.41 g/kg/day, JHGs medium dose 11.41 g/kg/d
Friendly reminder: values = log10 of AUC(0-t), unit ng·h/mL.

Worked cases, answers included:
Compound | Readout value
O=c1cc(-c2ccc(O)c(O)c2)oc2cc(O[C@@H]3O[C@H](CO)[C@@H](O)[C@H](O)[C@H]3O)cc(O)c12 [Cynaroside] | 2.60
COc1ccc(C(C)=O)c(O)c1 [Paeonol] | 1.69
CC1CCC2N(C1)CC1C3CC4C(CC(=O)C5CC(O)CCC54C)C3CCC1C2(C)O (stereo not drawn) [Peiminine] | 1.59
CC1CCC2N(C1)CC1C3CC4C(CC(O)C5CC(O)CCC54C)C3CCC1C2(C)O (stereo not drawn) [Peimine] | 1.16
O=c1cc(-c2ccc(O)cc2)oc2cc(OC3OC(CO)C(O)C(O)C3O)cc(O)c12 (stereo not drawn) [Apigenin-7-glucoside] | 1.35

Data request, read-out log10 AUC(0-t), for CC1=C2CC3C(CC(=O)C4CC(O)CCC43C)C2CCC12OC1CC(C)CNC1C2C (stereo not drawn) [Peimisine]
1.25

What about COc1cc(O)c2c(c1)oc(=O)c1c3cc(O)c(O)cc3oc21 [Wedelolactone] ?
2.38

What about C[C@@H]1O[C@@H](O[C@@H]2[C@@H](O)[C@H](OCCc3ccc(O)c(O)c3)O[C@H](COC(=O)/C=C/c3ccc(O)c(O)c3)[C@H]2O)[C@H](O)[C@H](O)[C@H]1O [Isoacteoside] ?
1.74

What about COc1ccc(-c2cc(=O)c3c(OC)c(OC)c(OC)c(OC)c3o2)cc1OC [Nobiletin] ?
1.16

---

# Experimental details: Pharmacokinetics of JHG components in control rats after intragastric administration of JHGs (plasma, Orbitrap Fusion MS)
# Assay type: in vivo, Sprague Dawley (SD) rats
# Reported conditions: male, Sprague Dawley, rat, plasma, po, 22.81 g/kg/day, JHGs high dose 22.81 g/kg/d, read-out: MRT(0-∞)
Rule: MRT inf below 10 h gives yes (1). Equal to or above 10 h gives no (0).

Solved entries (count: 5):
Compound | Discrete label
CC1=C2CC3C(CC(=O)C4CC(O)CCC43C)C2CCC12OC1CC(C)CNC1C2C (stereo not drawn) | no (0)
C[C@@H]1O[C@@H](O[C@@H]2[C@@H](O)[C@H](OCCc3ccc(O)c(O)c3)O[C@H](COC(=O)/C=C/c3ccc(O)c(O)c3)[C@H]2O)[C@H](O)[C@H](O)[C@H]1O [Isoacteoside] | yes (1)
O=c1cc(-c2ccc(O)c(O)c2)oc2cc(O[C@@H]3O[C@H](CO)[C@@H](O)[C@H](O)[C@H]3O)cc(O)c12 [Cynaroside] | yes (1)
COc1ccc(-c2cc(=O)c3c(OC)c(OC)c(OC)c(OC)c3o2)cc1OC | no (0)
CC1CCC2N(C1)CC1C3CC4C(CC(O)C5CC(O)CCC54C)C3CCC1C2(C)O (stereo not drawn) | no (0)

State whether 10 h exceeds MRT inf recorded for COc1cc(O)c2c(c1)oc(=O)c1c3cc(O)c(O)cc3oc21 .
no (0)

What about O=c1cc(-c2ccc(O)cc2)oc2cc(OC3OC(CO)C(O)C(O)C3O)cc(O)c12 (stereo not drawn) [Apigenin-7-glucoside] ?
no (0)

What about COc1ccc(C(C)=O)c(O)c1 ?
no (0)
